System: SF-295
Test: Cytotoxicity against human SF295 cells assessed as cell viability after 72 hrs by MTT assay
Type: functional, cell-based
Settings: SF-295, 72 h
readout: IC50

Illustrative cases are given below, each with its answer.
compound: O=C1C=C(NCc2cn(CCN3C(=O)c4ccccc4C3=O)nn2)C(=O)c2ccccc21
IC50: > 11 µM
--
compound: O=C1C(Br)=C(NCc2cn(CN3C(=O)c4ccccc4C3=O)nn2)C(=O)c2ccccc21
IC50: > 10 µM
--
compound: O=C1C=C(NCc2cn(CN3C(=O)c4ccccc4C3=O)nn2)C(=O)c2ccccc21
IC50: > 12 µM

**Q:** Return reported IC50; argument: O=C1C(Br)=C(NCc2cn(-c3cccc([N+](=O)[O-])c3)nn2)C(=O)c2ccccc21
**A:** > 11 µM

**Q:** Return reported IC50; argument: O=C1C(Cl)=C(NCc2cn(CCCN3C(=O)c4ccccc4C3=O)nn2)C(=O)c2ccccc21
**A:** > 10 µM

**Q:** Return reported IC50; argument: O=C1C=C(NCc2cn(CCCN3C(=O)c4ccccc4C3=O)nn2)C(=O)c2ccccc21
**A:** > 11 µM

**Q:** Return reported IC50; argument: CC(=O)OC[C@H]1OC(n2cc(CNC3=CC(=O)c4ccccc4C3=O)nn2)[C@H](OC(C)=O)[C@@H](OC(C)=O)[C@@H]1OC(C)=O (single isomer, unassigned)
**A:** > 8 µM

**Q:** Return reported IC50; argument: O=C1C(Br)=C(NCc2cn(CCN3C(=O)c4ccccc4C3=O)nn2)C(=O)c2ccccc21
**A:** > 9 µM

**Q:** Return reported IC50; argument: O=C1C=C(NCc2cn(-c3cccc([N+](=O)[O-])c3)nn2)C(=O)c2ccccc21
**A:** > 13 µM

---

Test: Cytotoxicity against human HCT8 cells assessed as cell viability after 72 hrs by MTT assay
Type: functional, cell-based
Details: HCT-8, 72 h
Measured IC50 by item

Illustrative cases are given below, each with its answer.
molecule: CC1(C)CC(Nc2ccc(I)cc2)C2=C(O1)C(=O)c1ccccc1C2=O (stereo not drawn)
value: > 10 µM

molecule: O=C1C=C(n2cc(CNC3=C(Br)C(=O)c4ccccc4C3=O)nn2)C(=O)c2ccccc21
value: > 10 µM

Lab note: next molecule to report on.
**Q:** Return reported IC50; argument: O=C1C=C(NCc2cn(CCCCN3C(=O)c4ccccc4C3=O)nn2)C(=O)c2ccccc21
**A:** > 10 µM

---

System: HCT-116
Assay: Cytotoxicity against human HCT116 cells assessed as cell viability after 72 hrs by MTT assay
Type: functional, cell-based
Settings: HCT-116, 72 h
pIC50: −log10 of the molar value.
Measured pIC50 by item

smi: O=C1C(Cl)=C(NCc2cn(CCN3C(=O)c4ccccc4C3=O)nn2)C(=O)c2ccccc21
value: < 5.00
--
smi: O=C1C=C(NCc2cn(CCCN3C(=O)c4ccccc4C3=O)nn2)C(=O)c2ccccc21
value: < 4.96

**Q:** Return reported pIC50; argument: O=C1C(Cl)=C(NCc2cn(CCCN3C(=O)c4ccccc4C3=O)nn2)C(=O)c2ccccc21
**A:** < 5.00

**Q:** Return reported pIC50; argument: O=C1C=C(n2cc(CNC3=C(Br)C(=O)c4ccccc4C3=O)nn2)C(=O)c2ccccc21
**A:** < 5.00

Data provenance is ChEMBL document CHEMBL3112408.
